# Test system: UO-31 renal
# TEST_NAME: NCI tumour cell line growth inhibition, 48 h
Examples of compounds with documented TGI follow.

COMPOUND	TGI
O=C(O)C/C(=C\c1ccco1)C(=O)O	> 100 µM
CC1(C)CCC[C@@]2(C)C1CCC1(C)C(CCc3ccoc3)/C(=C/OS(=O)(=O)O)CCC12 (some centres not stated) (tested in a mixture with another compound)	> 100 µM
N#Cc1c(-c2ccccc2)nc(SCC2CO2)nc1N1CCOCC1 (configuration not stated)	> 100 µM
Cc1ccc(S(=O)(=O)c2c(N)c3nc4ccccc4n3c3nc4ccccc4nc23)cc1	> 100 µM

Incoming: Dear colleague, I am looking for the recorded TGI of the following compound: O=C1OC[C@@H]2[C@@H](O)CCCCCN12
Outgoing: > 100 µM

Incoming: Dear colleague, I am looking for the recorded TGI of the following compound: CCOc1ccc2nc(-c3ccc(O)cc3)sc2c1
Outgoing: > 100 µM

Incoming: Dear colleague, I am looking for the recorded TGI of the following compound: CC(C)[C@]12O[C@H]1[C@@H]1O[C@]13[C@]1(O[C@H]1C[C@H]1C4=C(CC[C@@]13C)C(=O)OC4)[C@@H]2O
Outgoing: > 100 µM
